Tested on: TK-10 renal
Test: NCI-60 one-dose screen, 48 h
Details: 10 µM unless noted
The panel holds about 83,000 compounds, 20% with a hit somewhere; the sample as a whole holds those more often. Calls of active or inactive are those of the source. Rule for the calls: active = growth percent below 10; inactive = the rest.
Classes to choose from: yes (1) = active, no (0) = inactive

Check out these entries, answers already filled in.
Nc1cc2c(cc1Br)-c1cc(Cl)ccc1C2=O ... no (0)
COc1cc(CCCO)c(OC)c(OC)c1OC ... no (0)
BrCCCc1n(Cc2ccc3ccccc3c2)c2ccccc2[n+]1Cc1ccc2ccccc2c1 ... yes (1)

q: For this compound, state the assay outcome: `O=CN(SSN(C=O)C1CCCCC1)C1CCCCC1`
a: no (0)
